Assay: PAMPA with synthetic phospholipid membrane, decyl chain (C10)
Assay type: in vitro ADME
Conditions: C10, donor pH 4.98, acceptor pH 7.4, 16 h
Structures can show the parent of a compound that is named as a salt.
measured parameter: P e

Given the entry CC1(C)S[C@@H]2[C@H](NC(=O)[C@H](N)c3ccc(O)cc3)C(=O)N2[C@H]1C(=O)O , report its measured P e.
2.1 ×10^–7 cm/s

Try the compound COCCc1ccc(OCC(O)CNC(C)C)cc1 (centres unmarked) [Metoprolol Tartrate]
2.5 ×10^–5 cm/s

What do you have for NC(N)=Nc1nc(CSCCC(N)=NS(N)(=O)=O)cs1 ?
2.2 ×10^–6 cm/s

Item: CN(C)C(=N)N=C(N)N [Metformin Hydrochloride]
1.6 ×10^–7 cm/s

Let us now turn to CNC(=C[N+](=O)[O-])NCCSCc1ccc(CN(C)C)o1
1.8 ×10^–7 cm/s

###

Test: PAMPA with synthetic phospholipid membrane, lauryl chain (C12)
Format: in vitro ADME
Details: PAMPA, pH 7.4, C12 membrane, incubation time 16 h, pH 7.4 donor and acceptor, 25°C; read-out: P e
Structures can show the parent of a compound that is named as a salt.
measured parameter: Papp at 16 h (×10⁻⁶ cm/s)
Response body: numeric value in ×10⁻⁶ cm/s, unit text excluded.

Would you mind telling me what Papp at 16 h value was observed for COCCc1ccc(OCC(O)CNC(C)C)cc1 (centres unmarked) [Metoprolol Tartrate] ?
11.7

// repeat for CC1(C)S[C@@H]2[C@H](NC(=O)[C@H](N)c3ccc(O)cc3)C(=O)N2[C@H]1C(=O)O and report
5.7

Now give it for CNC(=C[N+](=O)[O-])NCCSCc1ccc(CN(C)C)o1 too.
1.5

Queued: NC(N)=Nc1nc(CSCCC(N)=NS(N)(=O)=O)cs1
3.2

Lookup CN(C)C(=N)N=C(N)N [Metformin Hydrochloride]
3.4

Same question for CN/C(=N/CCSCc1nc[nH]c1C)NC#N please.
3.2

Then O=C(N[C@H](CO)[C@H](O)c1ccc([N+](=O)[O-])cc1)C(Cl)Cl ?
14.6

Please answer likewise for CC(C)Cc1ccc(C(C)C(=O)O)cc1 (centres unmarked)
16.7

###

Kindly state Papp at 16 h for each of the entries shown.
Assay: PAMPA with synthetic phospholipid membrane, decyl chain (C10)
Format: in vitro ADME
Details: PAMPA, C10, donor pH 6.57, acceptor pH 7.4, 16 h; read-out: P e
Give the value, in units of ×10⁻⁶ cm/s, as a plain number.

Find the recorded Papp at 16 h belonging to CC(C)Cc1ccc(C(C)C(=O)O)cc1 (stereo not shown) [Ibuprofen] and report it.
7

Subsequent entry: O=C(N[C@H](CO)[C@H](O)c1ccc([N+](=O)[O-])cc1)C(Cl)Cl [Chloroamphenicol]
1

How about this compound: NC(N)=Nc1nc(CSCCC(N)=NS(N)(=O)=O)cs1 [Famotidine]
5.7

Here is the next compound: CCn1cc(C(=O)O)c(=O)c2cc(F)c(N3CCNCC3)cc21 [Norfloxacin]
2.5

###

Assay: PAMPA with synthetic phospholipid membrane, octyl chain (C8)
Type: in vitro ADME
Details: PAMPA, C8, donor pH 4.6, acceptor pH 7.4, 16 h; read-out: P e
measured parameter: Papp at 16 h (×10⁻⁶ cm/s)
Give your result in ×10⁻⁶ cm/s as a bare value.

Requested field: Papp at 16 h. Item: CN/C(=N/CCSCc1nc[nH]c1C)NC#N
1.8

What do you get for O=C(N[C@H](CO)[C@H](O)c1ccc([N+](=O)[O-])cc1)C(Cl)Cl ?
4.3

For NC(N)=Nc1nc(CSCCC(N)=NS(N)(=O)=O)cs1 then?
1.1

Again, but for CC(C)Cc1ccc(C(C)C(=O)O)cc1 (centres unmarked)
23

Could you do the same for CCn1cc(C(=O)O)c(=O)c2cc(F)c(N3CCNCC3)cc21 , please?
1.9

Data credit: paper PMC4315410
